# assayTarget: Mitogen-activated protein kinase 3 (Homo sapiens)
# measurementProtocol: Inhibition of ERK1 (unknown origin) at 1 uM by Z'-Lyte assay relative to control
assayEndpoint: inhibition (%)
All answers are understood in %, so give the number only.

Observe how each entry below is paired with its result.
COc1ccccc1C(=O)Nc1sc2c(c1C(N)=O)CCN(C(=S)Nc1ccccc1Cl)C2 = 66.3
NC(=O)c1c(NC(=O)c2ccccc2C(F)(F)F)sc2c1CCN(C(=S)Nc1ccccc1Br)C2 = 82.5
NC(=O)c1c(NC(=O)c2ccccc2C(F)(F)F)sc2c1CCN(C(=S)Nc1ccccc1F)C2 = 77.2

// query For the record `NC(=O)c1c(NC(=O)c2ccccc2Br)sc2c1CCN(C(=S)Nc1ccccc1C(F)(F)F)C2` , what value of inhibition is listed for Mitogen-activated protein kinase 3 (Homo sapiens)?
// result 79.3

// query For the record `Cc1ccccc1CN1CCc2c(sc(NC(=O)c3ccccc3Cl)c2C(N)=O)C1` , what value of inhibition is listed for Mitogen-activated protein kinase 3 (Homo sapiens)?
// result 60.6

// query For the record `NC(=O)c1c(NC(=O)c2ccccc2Cl)sc2c1CCN(C(=S)Nc1ccccc1-c1ccccc1)C2` , what value of inhibition is listed for Mitogen-activated protein kinase 3 (Homo sapiens)?
// result 60.9

// query For the record `NC(=O)c1c(NC(=O)c2ccccc2Cl)sc2c1CCN(Cc1ccccc1Cl)C2` , what value of inhibition is listed for Mitogen-activated protein kinase 3 (Homo sapiens)?
// result 61.4

// query For the record `NC(=O)c1c(NC(=O)c2ccccc2Cl)sc2c1CCN(C(=S)Nc1ccccc1F)C2` , what value of inhibition is listed for Mitogen-activated protein kinase 3 (Homo sapiens)?
// result 88.4

// query For the record `NC(=O)c1c(NC(=O)c2ccccc2I)sc2c1CCN(C(=S)Nc1ccccc1Cl)C2` , what value of inhibition is listed for Mitogen-activated protein kinase 3 (Homo sapiens)?
// result 83.5

// query For the record `Cc1ccc(C(=O)Nc2sc3c(c2C(N)=O)CCN(C(=S)Nc2ccccc2Cl)C3)cc1` , what value of inhibition is listed for Mitogen-activated protein kinase 3 (Homo sapiens)?
// result 83.2

// query For the record `COc1ccccc1NC(=S)N1CCc2c(sc(NC(=O)c3ccccc3OC)c2C(N)=O)C1` , what value of inhibition is listed for Mitogen-activated protein kinase 3 (Homo sapiens)?
// result 44.7

// query For the record `NC(=O)c1c(NC(=O)c2cccc([N+](=O)[O-])c2)sc2c1CCN(C(=O)Nc1ccccc1Cl)C2` , what value of inhibition is listed for Mitogen-activated protein kinase 3 (Homo sapiens)?
// result 71.3

Entry source: ChEMBL document CHEMBL4342467
